Measured PBM binding z-score, listed per entry.
- System: RARg homodimer (NR concentration 270 nM)
- test-details: PBM binding z-score (relative to random genomic background probes); higher = stronger binding; sequences stand for … in GC…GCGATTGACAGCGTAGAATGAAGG

The cases that follow already have their PBM binding z-score on record.
primary_sequence=CGTCAAAGTTCAAGATAACGTAACAGAAAGCAGC tested_system="RARg homodimer (NR concentration 270 nM)" metric="PBM binding z-score" endpoint_result=6.09
primary_sequence=CCGACTGGGGCATAAAGGTTACCATACCATCCGG tested_system="RARg homodimer (NR concentration 270 nM)" metric="PBM binding z-score" endpoint_result=1.79
primary_sequence=GATACAGGGTCAAGGCCAGAGTCCGCGTATTGAT tested_system="RARg homodimer (NR concentration 270 nM)" metric="PBM binding z-score" endpoint_result=4.89
primary_sequence=CGTCCAAGGTCAGAGAGGTCAGTTAATGCCGAGT tested_system="RARg homodimer (NR concentration 270 nM)" metric="PBM binding z-score" endpoint_result=7.24
primary_sequence=GCTAGTTGGTCAGTAAAGGGTCACACACCGGTCG tested_system="RARg homodimer (NR concentration 270 nM)" metric="PBM binding z-score" endpoint_result=3.73
primary_sequence=CCTAGCAAGCCAATCTGGGTCACTCAAGGCTTGA tested_system="RARg homodimer (NR concentration 270 nM)" metric="PBM binding z-score" endpoint_result=0.537
primary_sequence=TAGCCTAGGTCAGAGCGGGCCAGTATACGCTATA tested_system="RARg homodimer (NR concentration 270 nM)" metric="PBM binding z-score" endpoint_result=3.13
primary_sequence=TTACCAAGGAGAGCTGAGGTCGTTGATCCAACTC tested_system="RARg homodimer (NR concentration 270 nM)" metric="PBM binding z-score" endpoint_result=-0.138
primary_sequence=CGAACCAGGTCAAGGACAGTGAATCTCCGCACGC tested_system="RARg homodimer (NR concentration 270 nM)" metric="PBM binding z-score" endpoint_result=4.33
primary_sequence=ACTATTAGTTGTGACGAGGGCAACCGATAGGTTG tested_system="RARg homodimer (NR concentration 270 nM)" metric="PBM binding z-score" endpoint_result=0.719

[in] Entry under review: AGTCAAAGTTCACTAGGTAACATAAGATTCAGCT . Reported PBM binding z-score?
[out] 5.9

[in] Entry under review: CGAAGTAGGTCATTGACAGGACAGTGAATAGTAA . Reported PBM binding z-score?
[out] 4.36
